Tested on: Pseudoalteromonas
EXPERIMENT DESCRIPTION: Induction of bacteriophage PM2 closed circular DNA unwinding assessed as drug per nucleic acid phosphate ratio at equivalence by viscometric analysis
Recorded Ratio by entry
ATTRIBUTE MEASURED: Ratio

>  <SMILES TEXT>
Cl.c1ccc(OCCCOc2ccccc2Nc2c3ccccc3nc3ccccc23)c(Nc2c3ccccc3nc3ccccc23)c1

>  <READOUT NUMBER>
0.072

$$$$
>  <SMILES TEXT>
Br.O.O=S(=O)(CCNc1ccnc2ccccc12)Nc1ccc(Nc2c3ccccc3nc3ccccc23)cc1

>  <READOUT NUMBER>
0.12

$$$$
>  <SMILES TEXT>
COc1cc(NS(=O)(=O)CCCCS(=O)(=O)Nc2ccc(Nc3ccnc4ccccc34)c(OC)c2)ccc1Nc1ccnc2ccccc12.Cl.O

>  <READOUT NUMBER>
0.15

$$$$
>  <SMILES TEXT>
Cl.O.O=S(=O)(CCNc1c2ccccc2nc2ccccc12)Nc1ccc(Nc2c3ccccc3nc3ccccc23)cc1

>  <READOUT NUMBER>
0.078

$$$$
